- system name: Aromatase (Homo sapiens) (UniProt P11511)
- Sequence (P11511 whole entry, looked up): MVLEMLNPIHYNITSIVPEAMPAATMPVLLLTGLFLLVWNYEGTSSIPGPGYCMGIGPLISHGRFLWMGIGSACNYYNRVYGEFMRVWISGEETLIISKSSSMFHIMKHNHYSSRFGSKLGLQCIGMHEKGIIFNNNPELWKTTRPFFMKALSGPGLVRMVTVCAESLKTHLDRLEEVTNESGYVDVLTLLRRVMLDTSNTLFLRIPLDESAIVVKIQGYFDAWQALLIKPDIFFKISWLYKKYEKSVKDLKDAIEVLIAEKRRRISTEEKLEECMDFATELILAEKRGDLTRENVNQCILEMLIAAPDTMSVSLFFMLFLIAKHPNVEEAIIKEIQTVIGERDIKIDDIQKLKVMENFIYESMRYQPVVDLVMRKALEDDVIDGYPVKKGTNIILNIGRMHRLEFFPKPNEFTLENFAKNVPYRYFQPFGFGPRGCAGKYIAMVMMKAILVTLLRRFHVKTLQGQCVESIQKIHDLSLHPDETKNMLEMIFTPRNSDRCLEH
- experiment notes: qHTS assay to identify aromatase inhibitors (AID 743083); note: nearly all actives have a fitted effect of over 55% in size
- condition set: MCF-7 aro ERE, testosterone-driven ERE luciferase, 24 h; series mostly up to 70.3 µM
Inconclusive results are not listed. The source made the active and inactive calls. Calls come from the whole dose curve; as a rule, active = well fitted inhibition curve with a large enough effect in the repeat runs; inconclusive = weak or mixed curves; inactive = no such curve, though single readings can be large or run the other way.
Possible outcomes: t for active, f for inactive

[
  {
    "compound": "CCOP(O)OCC",
    "assigned category": "f"
  },
  {
    "compound": "C=CCN1CC[C@]23c4c5ccc(O)c4O[C@H]2C(=O)CC[C@@]3(O)[C@H]1C5",
    "assigned category": "f"
  },
  {
    "compound": "CCCC(Cn1cncn1)c1ccc(Cl)cc1Cl (centres undefined)",
    "assigned category": "t"
  },
  {
    "compound": "CN1C(=O)NC(=O)C(C)(C2=CCCCC2)C1=O (centres undefined)",
    "assigned category": "f"
  }
]

###

- experiment notes: A CellTox Green Cytotoxicity Assay to monitor cytotoxicity in HepG2 cells - 8 hour (AID 1224890); note: nearly all actives have a fitted effect of over 45% in size
- condition set: CellTox Green fluorescence; series mostly up to 76.8 µM
Inconclusive results are not listed. Calls of active or inactive are those of the source. The call rests on the fitted dose curve; in most records, active means well fitted activation curve with a large enough effect in the repeat runs; inconclusive means weak or mixed curves; inactive means flat fitted curve, though single readings scatter.
Possible outcomes: true (1) for active, false (0) for inactive

[
  {
    "compound": "IC(I)=C(I)I",
    "assigned category": "true (1)"
  },
  {
    "compound": "COc1cc(CC(C)N)cc2c1OCO2 (centres undefined)",
    "assigned category": "false (0)"
  },
  {
    "compound": "COC(C)(C)CCC[C@H](C)C/C=C/C(C)=C/C(=O)OC(C)C",
    "assigned category": "false (0)"
  },
  {
    "compound": "O=[Se]=O",
    "assigned category": "false (0)"
  },
  {
    "compound": "CC(=O)[C@H]1CC[C@H]2[C@@H]3CC[C@H]4C[C@](C)(O)CC[C@]4(C)[C@H]3CC[C@]12C",
    "assigned category": "false (0)"
  },
  {
    "compound": "C=CC(=O)OC(C)(C)C",
    "assigned category": "false (0)"
  },
  {
    "compound": "CCCN(CCC)c1c([N+](=O)[O-])cc(S(C)(=O)=O)cc1[N+](=O)[O-]",
    "assigned category": "false (0)"
  },
  {
    "compound": "CN(N=O)c1ccc([N+](=O)[O-])cc1",
    "assigned category": "false (0)"
  },
  {
    "compound": "C[C@@H]1CC[C@H]2[C@@H](C)C(=O)O[C@@H]3O[C@@]4(C)CC[C@@H]1[C@]32OO4",
    "assigned category": "false (0)"
  },
  {
    "compound": "C=CCOC(C)=O",
    "assigned category": "false (0)"
  },
  {
    "compound": "N#CCC#N",
    "assigned category": "false (0)"
  },
  {
    "compound": "C=CC(=O)NCNC(=O)C=C",
    "assigned category": "false (0)"
  },
  {
    "compound": "O=Cc1ccc(Cl)cc1Cl",
    "assigned category": "false (0)"
  },
  {
    "compound": "Cn1cc[n+](C)c1 (tested in a mixture with another compound)",
    "assigned category": "false (0)"
  },
  {
    "compound": "O=C1C(=O)c2cccc3cccc1c23",
    "assigned category": "false (0)"
  },
  {
    "compound": "CCOP(=O)(OCC)SCCSCC",
    "assigned category": "false (0)"
  },
  {
    "compound": "CC1CC(CC2CCC(N)C(C)C2)CCC1N (centres undefined)",
    "assigned category": "false (0)"
  },
  {
    "compound": "CCO[C@H]1O[C@@H]2OC3(C)CC[C@H]4[C@H](C)CC[C@@H]([C@H]1C)[C@@]24OO3",
    "assigned category": "false (0)"
  },
  {
    "compound": "Cc1cc(=O)[nH]o1",
    "assigned category": "false (0)"
  },
  {
    "compound": "C=CC(=O)OCC(C)C",
    "assigned category": "false (0)"
  },
  {
    "compound": "COC(=O)C(C)N(C(=O)Cc1ccccc1)c1c(C)cccc1C (centres undefined)",
    "assigned category": "false (0)"
  },
  {
    "compound": "O=C(CBr)Nc1ccc(Cl)cc1C(=O)c1ccccc1F",
    "assigned category": "false (0)"
  },
  {
    "compound": "O=C(OC1CCCCC1)c1ccccc1C(=O)OC1CCCCC1",
    "assigned category": "false (0)"
  },
  {
    "compound": "NCCCNCCCN",
    "assigned category": "false (0)"
  }
]

###

- system name: Aryl hydrocarbon receptor (Homo sapiens)
- experiment notes: qHTS assay to identify small molecule that activate the aryl hydrocarbon receptor (AhR) signaling pathway (AID 743085); note: nearly all actives have a fitted effect of over 15% in size;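 for activation: HG2L7.5c1 human HepG2 liver cells with stably integrated DRE-driven firefly reporter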
- condition set: HepG2 AhR-luc (HG2L7.5c1), luciferase, 24 h; series mostly up to 70.3 µM
Records with an inconclusive call do not appear. The source made the active and inactive calls. The call rests on the fitted dose curve; in most records, active means well fitted activation curve with a large enough effect in the repeat runs; inconclusive means weak or mixed curves; inactive means no such curve, though single readings can be large or run the other way.
Possible outcomes: 1 for active, -1 for inactive

[
  {
    "compound": "O=C(O)C1(c2ccc3c(c2)OC[C@H](Cc2ccc(-c4ccccc4)cc2)[C@H]3O)CCCC1",
    "assigned category": -1
  },
  {
    "compound": "COC(=O)C(Cl)C(=O)OC",
    "assigned category": -1
  },
  {
    "compound": "C(=NC1CCCCC1)=NC1CCCCC1",
    "assigned category": -1
  },
  {
    "compound": "C=CC(=O)OCC(C)C",
    "assigned category": -1
  },
  {
    "compound": "O=C(C(Cl)(Cl)Cl)C(Cl)(Cl)Cl",
    "assigned category": -1
  },
  {
    "compound": "CCOP(=O)(OCC)Oc1ccc([N+](=O)[O-])cc1",
    "assigned category": -1
  },
  {
    "compound": "O=S(=O)(Cl)c1ccccc1",
    "assigned category": -1
  },
  {
    "compound": "CC(C)(CCl)C(=O)Cl",
    "assigned category": -1
  },
  {
    "compound": "Cc1ccc2ccccc2c1",
    "assigned category": -1
  },
  {
    "compound": "O=Cc1ccc2c(c1)OCO2",
    "assigned category": -1
  },
  {
    "compound": "CCCC(Cn1cncn1)c1ccc(Cl)cc1Cl (centres undefined)",
    "assigned category": -1
  },
  {
    "compound": "Brc1ccccc1",
    "assigned category": -1
  },
  {
    "compound": "O=C1c2ccccc2C(=O)C1C(=O)C(c1ccccc1)c1ccccc1",
    "assigned category": 1
  },
  {
    "compound": "CC/C(=N\\OC/C=C/Cl)C1=C(O)CC(C2CCOCC2)CC1=O (centres undefined)",
    "assigned category": -1
  },
  {
    "compound": "COc1cc(Cl)c(OC)cc1Cl",
    "assigned category": -1
  },
  {
    "compound": "O=C(O)COc1ccc(Cl)cc1",
    "assigned category": -1
  },
  {
    "compound": "C[C@@H]1CC[C@H]2[C@@H](C)C(=O)O[C@@H]3O[C@@]4(C)CC[C@@H]1[C@]32OO4",
    "assigned category": -1
  },
  {
    "compound": "O=[Se]=O",
    "assigned category": -1
  },
  {
    "compound": "O=C(OC1CCCCC1)c1ccccc1C(=O)OC1CCCCC1",
    "assigned category": -1
  },
  {
    "compound": "CC(=O)CCC(C)=O",
    "assigned category": -1
  },
  {
    "compound": "CCCCN(N=O)C(=N)N[N+](=O)[O-]",
    "assigned category": -1
  },
  {
    "compound": "O=S1OC[C@@H]2[C@H](CO1)[C@]1(Cl)C(Cl)=C(Cl)[C@@]2(Cl)C1(Cl)Cl (some centres undefined)",
    "assigned category": -1
  },
  {
    "compound": "O=[N+]([O-])c1ccc(F)c([N+](=O)[O-])c1",
    "assigned category": -1
  },
  {
    "compound": "CC(c1ccc(O)cc1)(c1ccc(O)cc1)c1ccc(O)cc1",
    "assigned category": -1
  }
]

###

- experiment notes: qHTS assay to identify small molecule antagonists of the estrogen related receptor signaling pathway with the pleiotropic PPARgamma coactivator (PGC) from Tox21 10K library (AID 1224841); note: actives are mostly falling curves and most rising ones were filed inactive; nearly all actives have a fitted effect of over 50% in size
- condition set: PGC/ERR reporter cell line, ONE-Glo luciferase, 18 h; series mostly up to 92.4 µM
- Excerpt: U.S. Tox21 Program National Center for Advancing Translational Sciences [NCATS] NIH Chemical Genomics Center [NCGC] U.S. Environmental Protection Agency [EPA] National Institutes of Environmental Health Sciences [NIEHS] National Toxicology Program [NTP] U.S. Food and Drug Administration [FDA] Tox21 Assay Overview: Estrogen related receptors (ERRs), the first orphan nuclear receptors discovered, play an important role in the control of cellular energy metabolism. […]
Inconclusive results are not listed. Active and inactive are the calls of the source. How the calls were made is not given here.
Possible outcomes: T for active, F for inactive

[
  {
    "compound": "N#Cc1ccc(Cl)cc1",
    "assigned category": "F"
  },
  {
    "compound": "ClC=C(Cl)Cl",
    "assigned category": "F"
  },
  {
    "compound": "CCOP(=O)(OCC)SCCSCC",
    "assigned category": "F"
  },
  {
    "compound": "CCC(C)(NC(=O)c1cc(Cl)c(C)c(Cl)c1)C(=O)CCl (stereo unspecified)",
    "assigned category": "T"
  },
  {
    "compound": "Clc1cccc(SC2CCNCC2)n1",
    "assigned category": "F"
  },
  {
    "compound": "C=CC(=O)OCC(C)C",
    "assigned category": "F"
  }
]

src = PubChem BioAssay (Tox21)
